Would you kindly list Post-emergence action against DIGSA in % for each of these molecules?
- Test system: DIGSA
- measurement-protocol: Post-emergence herbicidal action against DIGSA
- Assay type: in vivo, Digitaria sanguinalis
- conditions: 5 g/ha
Numbers only, in %.

Would you please look over these solved cases?
INSERT INTO measurements (given_smiles, assay_system, reported_metric, observed_result) VALUES
  ('CCNC(=O)c1c(C(F)(F)F)ccc(C(=O)Nc2nnco2)c1SC', 'DIGSA', 'Post-emergence action against DIGSA in %', 90),
  ('CCNC(=O)c1c(C(F)(F)F)ccc(C(=O)Nc2nnnn2CC)c1OC', 'DIGSA', 'Post-emergence action against DIGSA in %', 90);

Lab note: next molecule to report on.
Input line: Consider the molecule CCNC(=O)c1c(C(F)(F)F)ccc(C(=O)Nc2nnc(C)o2)c1OC and give its measured Post-emergence action against DIGSA in %.
Output line: 80

Every entry's value here was drawn from patent US12655116B2.
